// values below are reported isoTOP-ABPP reactivity profile ratio, P16455_C150
target: MGMT C150 (P16455) (Homo sapiens); test: Competitive isoTOP-ABPP, cell lysates; format: binding; settings: 500 μm, in-vitro_ramos
Sequence (P16455 whole entry): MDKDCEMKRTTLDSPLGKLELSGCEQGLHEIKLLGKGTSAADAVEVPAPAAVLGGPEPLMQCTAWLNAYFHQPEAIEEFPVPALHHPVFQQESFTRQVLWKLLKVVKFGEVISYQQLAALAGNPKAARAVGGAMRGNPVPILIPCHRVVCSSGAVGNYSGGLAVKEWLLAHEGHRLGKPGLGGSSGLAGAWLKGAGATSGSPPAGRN
Property: isoTOP-ABPP reactivity profile ratio, P16455_C150

{"Compound": "COc1cc(NC(=O)CCl)cc(OC)c1 [compound 43]", "Reported measurement": 20.0}
{"Compound": "O=C(CCl)Nc1ccc(-c2ccccc2)cc1 [compound 52]", "Reported measurement": 2.2}
{"Compound": "N#CC(=Cc1ccc(-c2ccccc2Cl)o1)C(N)=O [compound 42]", "Reported measurement": 0.8}
{"Compound": "C=CC(=O)N1CCC(Cc2ccccc2)CC1 [compound 53]", "Reported measurement": 1.1}
